# TARGET: androgen receptor (AR) (Homo sapiens, UniProt P10275)
# Sequence (P10275 1-920): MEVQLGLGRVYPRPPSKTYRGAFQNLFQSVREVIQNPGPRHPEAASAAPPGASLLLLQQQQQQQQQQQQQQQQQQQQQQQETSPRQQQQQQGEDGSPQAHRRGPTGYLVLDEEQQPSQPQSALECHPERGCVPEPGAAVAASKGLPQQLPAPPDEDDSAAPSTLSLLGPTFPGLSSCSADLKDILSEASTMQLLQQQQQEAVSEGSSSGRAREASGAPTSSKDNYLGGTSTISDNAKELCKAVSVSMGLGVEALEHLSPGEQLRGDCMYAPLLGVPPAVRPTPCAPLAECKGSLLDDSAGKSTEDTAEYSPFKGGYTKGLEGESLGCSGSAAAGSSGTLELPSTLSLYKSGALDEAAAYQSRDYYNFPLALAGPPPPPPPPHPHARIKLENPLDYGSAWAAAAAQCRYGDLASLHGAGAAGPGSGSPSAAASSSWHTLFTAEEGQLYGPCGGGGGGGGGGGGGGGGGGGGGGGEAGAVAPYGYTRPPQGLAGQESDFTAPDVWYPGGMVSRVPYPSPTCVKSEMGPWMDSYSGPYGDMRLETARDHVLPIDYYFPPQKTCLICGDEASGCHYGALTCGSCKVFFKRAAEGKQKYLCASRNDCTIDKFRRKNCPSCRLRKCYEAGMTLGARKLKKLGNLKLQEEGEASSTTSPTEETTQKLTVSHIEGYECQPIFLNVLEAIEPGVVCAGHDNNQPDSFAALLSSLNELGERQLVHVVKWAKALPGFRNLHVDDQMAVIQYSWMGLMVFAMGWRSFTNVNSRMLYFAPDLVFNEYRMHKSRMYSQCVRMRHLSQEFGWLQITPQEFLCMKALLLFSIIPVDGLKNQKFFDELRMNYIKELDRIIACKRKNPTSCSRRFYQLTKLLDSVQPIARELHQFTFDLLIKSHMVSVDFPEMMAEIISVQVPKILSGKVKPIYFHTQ
# ASSAY PROCEDURE: Degradation of androgen receptor (AR) protein in VCaP cells by ELISA
# Format: cell-based
# MEASUREMENT SETUP: AR degradation, VCaP cells, 16 h, ELISA, Table 3-1; read-out: DC50
Readings of DC50 for the listed compounds

COMPOUND	DC50
CC1(C)[C@H](Oc2ccc(C#N)c(Cl)c2)C(C)(C)[C@H]1N1Cc2nc(C#CC3CCC(N4CCC5(CCN(c6cc7c(cc6F)C(=O)N(C6CCC(=O)NC6=O)C7=O)C5)C4)CC3)ccc2C1=O (some centres unmarked) [Compound 366]	< 10 nM
CC1(C)[C@H](Oc2ccc(C#N)c(Cl)c2)C(C)(C)[C@H]1N1Cc2nc(C#CC3CCC(N4CC5CC4CN5c4ccc5c(c4)C(=O)N(C4CCC(=O)NC4=O)C5=O)CC3)ccc2C1=O (single isomer, unassigned) [Compound 352]	> 300 nM
N#Cc1ccc(O[C@H]2CC[C@H](NC(=O)c3cnn([C@H]4CC[C@H](CN5CCC6(CC5)CN(c5ccc7c(c5)C(=O)N(C5CCC(=O)NC5=O)C7=O)C6)CC4)n3)CC2)cc1Cl (some centres unmarked)	< 10 nM
C[C@H]1CN(C[C@@H]2[C@H]3CN(c4cc5c(cc4F)C(=O)N(C4CCC(=O)NC4=O)C5=O)C[C@@H]23)CCN1c1ccc(C(=O)N[C@H]2CC[C@H](Oc3ccc(C#N)c(Cl)c3)CC2)nn1 (some centres unmarked)	< 10 nM
N#Cc1ccc(O[C@H]2CC[C@H](NC(=O)c3ccc(N4CC5(CC(N6CCN(c7cc8c(cc7F)C(=O)N(C7CCC(=O)NC7=O)C8=O)CC6)C5)C4)nn3)CC2)cc1Cl (some centres unmarked)	< 10 nM
